For each entry below, report its Ratio value.
# MEASURED_ON: ATP-dependent translocase ABCB1 (Homo sapiens, UniProt P08183)
# Sequence (P08183 whole entry): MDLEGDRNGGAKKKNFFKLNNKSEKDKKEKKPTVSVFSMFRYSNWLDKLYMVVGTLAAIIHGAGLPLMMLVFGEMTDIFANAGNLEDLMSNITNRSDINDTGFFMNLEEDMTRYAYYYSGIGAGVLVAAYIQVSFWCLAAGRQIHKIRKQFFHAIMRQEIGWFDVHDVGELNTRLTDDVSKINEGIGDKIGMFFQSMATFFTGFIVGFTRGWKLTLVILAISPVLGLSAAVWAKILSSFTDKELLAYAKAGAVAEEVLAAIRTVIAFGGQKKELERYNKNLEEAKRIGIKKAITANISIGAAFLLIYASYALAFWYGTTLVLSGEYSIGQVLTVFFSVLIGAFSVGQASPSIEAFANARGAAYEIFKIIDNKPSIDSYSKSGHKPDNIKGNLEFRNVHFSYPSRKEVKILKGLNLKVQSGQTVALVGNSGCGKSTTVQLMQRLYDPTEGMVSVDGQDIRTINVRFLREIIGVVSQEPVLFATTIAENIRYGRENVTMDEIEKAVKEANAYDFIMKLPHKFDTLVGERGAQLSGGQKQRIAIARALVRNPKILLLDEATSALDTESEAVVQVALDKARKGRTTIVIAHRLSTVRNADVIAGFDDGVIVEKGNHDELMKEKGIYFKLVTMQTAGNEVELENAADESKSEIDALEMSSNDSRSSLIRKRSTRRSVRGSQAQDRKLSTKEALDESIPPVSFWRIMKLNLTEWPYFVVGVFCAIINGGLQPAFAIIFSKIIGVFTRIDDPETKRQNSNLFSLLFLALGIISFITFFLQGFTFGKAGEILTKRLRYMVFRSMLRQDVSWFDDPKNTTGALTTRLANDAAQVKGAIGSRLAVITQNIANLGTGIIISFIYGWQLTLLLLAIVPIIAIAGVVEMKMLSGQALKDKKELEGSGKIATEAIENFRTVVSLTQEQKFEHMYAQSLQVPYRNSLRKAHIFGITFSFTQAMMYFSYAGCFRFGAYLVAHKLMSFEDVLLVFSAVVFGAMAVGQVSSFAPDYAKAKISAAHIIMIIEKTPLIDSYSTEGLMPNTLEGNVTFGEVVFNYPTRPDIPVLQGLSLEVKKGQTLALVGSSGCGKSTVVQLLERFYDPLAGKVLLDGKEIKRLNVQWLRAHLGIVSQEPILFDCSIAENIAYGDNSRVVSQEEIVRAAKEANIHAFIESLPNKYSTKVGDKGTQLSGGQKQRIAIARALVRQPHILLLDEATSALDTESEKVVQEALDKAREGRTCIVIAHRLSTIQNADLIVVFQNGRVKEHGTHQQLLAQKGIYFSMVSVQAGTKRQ
# TEST_NAME: Inhibition of human ABCB1 expressed in mouse L5178Y cells assessed as fluorescence activity ratio at 20 uM pretreated for 10 mins followed by rhodamine-123 addition after 20 mins by flow cytometry
# Type: cell-based
Quick one: just the number, no unit, thanks!

Consider the compound shown here: "CC[C@H]1CN(C)[C@H]2Cc3c([nH]c4ccccc34)/C(=N/Nc3ccccc3)C[C@H]1[C@@H]2C(=O)OC" What is its recorded Ratio?
60.89

What value of measured Ratio is listed for "CC[C@H]1CN(C)[C@H]2Cc3c([nH]c4ccccc34)/C(=N/Nc3ccc(Br)cn3)C[C@H]1[C@@H]2C(=O)OC" ?
56.22

Any idea what Ratio was measured for "CC[C@H]1CN(C)[C@H]2Cc3c([nH]c4ccccc34)C(=S)C[C@H]1[C@@H]2C(=O)OC" ?
51.15

Tell me the measured Ratio of "CC[C@@H]1CN(C)[C@H]2Cc3c([nH]c4ccccc34)/C(=N/O)C[C@H]1[C@@H]2C(=O)OC" , please.
7.31

Would you mind telling me what Ratio value was observed for "CC[C@@H]1CN(C)[C@H]2Cc3c([nH]c4ccccc34)/C(=N/Nc3ccc(Br)cn3)C[C@H]1[C@@H]2C(=O)OC" ?
70.82

Which Ratio reading was recorded for the compound "CC[C@@H]1CN(C)[C@H]2Cc3c([nH]c4ccccc34)/C(=N/N)C[C@H]1[C@@H]2C(=O)OC" ?
18.46

Bench note: what Ratio did "CC[C@@H]1CN(C)[C@H]2Cc3c([nH]c4ccccc34)C(=O)C[C@H]1[C@@H]2C(=O)OC" show?
1.38

----------
# MEASURED_ON: ATP-dependent translocase ABCB1 (Homo sapiens)
# TEST_NAME: Inhibition of human ABCB1 expressed in mouse L5178Y cells assessed as increase in rhodamine-123 accumulation by measuring forward scatter count of cells at 2 uM pretreated for 10 mins followed by rhodamine-123 addition after 20 mins by flow cytometry (reference value: 2206)
# Type: cell-based
Kindly state Activity for each of the entries shown.
Answer using only a numeral; do not append any unit.

Could you share which Activity value was measured for "CC[C@H]1CN(C)[C@H]2Cc3c(n(Cc4ccccc4)c4ccccc34)C(=O)C[C@H]1[C@@H]2C(=O)OC" ?
2417

Look at this molecule and give its reported Activity. "C/C=C/C(=O)O[C@H]1C[C@@H]2[C@@H](CC)CN(C)[C@@H](Cc3c1[nH]c1ccccc31)[C@H]2C(=O)OC"
2440

So what does the record say about Activity for "CC[C@@H]1CN(C)[C@H]2Cc3c([nH]c4ccccc34)[C@@H](O)C[C@H]1[C@@H]2C(=O)OC" ?
2251

What measured Activity goes with "CC[C@@H]1CN(C)[C@H]2Cc3c([nH]c4ccccc34)/C(=N/O)C[C@H]1[C@@H]2C(=O)OC" ?
2237

Query (molecule): "CC[C@H]1CN(C)[C@H]2Cc3c([nH]c4ccccc34)C(=O)C[C@H]1[C@@H]2C(=O)OC" ; field requested: Activity
2353

Value lookup for Activity; key = "CC[C@H]1CN(C)[C@H]2Cc3c([nH]c4ccccc34)/C(=N/NC(=S)NCc3cccnc3)C[C@H]1[C@@H]2C(=O)OC"
2244

Quick one: Activity for "CC[C@H]1CN(C)[C@H]2Cc3c([nH]c4ccccc34)/C(=N/Nc3cnccn3)C[C@H]1[C@@H]2C(=O)OC" ?
2227

Param item = "CC[C@@H]1CN(C)[C@H]2Cc3c([nH]c4ccccc34)[C@@H](OC(=O)C34CC5CC(CC(C5)C3)C4)C[C@H]1[C@@H]2C(=O)OC" ; retrieve measured Activity.
2450

Form field: reported Activity of "CC[C@@H]1CN(C)[C@H]2Cc3c([nH]c4ccccc34)/C(=N/Nc3cnccn3)C[C@H]1[C@@H]2C(=O)OC"
2283

I am curious: what Activity value has been reported for "CC[C@H]1CN(C)[C@H]2Cc3c([nH]c4ccccc34)/C(=N/Nc3ccc(Br)cn3)C[C@H]1[C@@H]2C(=O)OC" ?
2152

# Activity lookup, item "CC[C@H]1CN(C)[C@H]2Cc3c(n(C)c4ccccc34)C(=O)C[C@H]1[C@@H]2C(=O)OC"
2435

Please give the measured Activity for this molecule: "CC[C@H]1CN(C)[C@H]2Cc3c(n(C(=O)c4cccc(C)c4)c4ccccc34)C(=O)C[C@H]1[C@@H]2C(=O)OC"
2436

Suppose we examine the molecule "CC[C@@H]1CN(C)[C@H]2Cc3c([nH]c4ccccc34)/C(=N/N)C[C@H]1[C@@H]2C(=O)OC" ; what Activity value has been reported?
2191

Which Activity is reported for this molecule? "CC[C@H]1CN(C)[C@H]2Cc3c([nH]c4ccccc34)/C(=N/NC(=O)OCc3ccc(OC)cc3)C[C@H]1[C@@H]2C(=O)OC"
2262

Would you kindly share the measured Activity for "CC[C@@H]1CN(C)[C@H]2Cc3c([nH]c4ccccc34)/C(=N/Nc3ccc(Br)cn3)C[C@H]1[C@@H]2C(=O)OC" ?
2294

So what does the record say about Activity for "CC[C@H]1CN(C)[C@H]2Cc3c(n(CCN(CC)CC)c4ccccc34)C(=O)C[C@H]1[C@@H]2C(=O)OC" ?
2415

Item under review: "CC[C@@H]1CN(C)[C@H]2Cc3c([nH]c4ccccc34)/C(=N/NC(N)=O)C[C@H]1[C@@H]2C(=O)OC" . Reported Activity?
2410

----------
# MEASURED_ON: ATP-dependent translocase ABCB1 (Homo sapiens, UniProt P08183)
# TEST_NAME: Inhibition of human ABCB1 expressed in mouse L5178Y cells assessed as fluorescence activity ratio at 2 uM pretreated for 10 mins followed by rhodamine-123 addition after 20 mins by flow cytometry
# Assay type: cell-based
QUANTITY_MEASURED: Ratio
Form rule: numeric answer, no unit written next to it.

Reported Ratio for "CC[C@H]1CN(C)[C@H]2Cc3c([nH]c4ccccc34)/C(=N/O)C[C@H]1[C@@H]2C(=O)OC" : what is it?
0.85

Tell me the measured Ratio of "CC[C@H]1CN(C)[C@H]2Cc3c([nH]c4ccccc34)/C(=N/Nc3cnccn3)C[C@H]1[C@@H]2C(=O)OC" , please.
8.49

Which Ratio value belongs to "CC[C@H]1CN(C)[C@H]2Cc3c(n(Cc4ccccc4)c4ccccc34)C(=O)C[C@H]1[C@@H]2C(=O)OC" ?
4.82

Value lookup for Ratio; key = "CC[C@@H]1CN(C)[C@H]2Cc3c([nH]c4ccccc34)/C(=N/NC(N)=O)C[C@H]1[C@@H]2C(=O)OC"
1.04

For "CC[C@H]1CN(C)[C@H]2Cc3c([nH]c4ccccc34)/C(=N/Nc3ccc(Br)cn3)C[C@H]1[C@@H]2C(=O)OC" , what is its reported Ratio?
57.99

Please look up its Ratio: "CC[C@H]1CN(C)[C@H]2Cc3c([nH]c4ccccc34)C(=S)C[C@H]1[C@@H]2C(=O)OC"
2.99

For the compound "CC[C@@H]1CN(C)[C@H]2Cc3c([nH]c4ccccc34)/C(=N/Nc3ccc(Br)cn3)C[C@H]1[C@@H]2C(=O)OC" , what Ratio is on record?
84.19

Please report the recorded Ratio for "CC[C@@H]1CN(C)[C@H]2Cc3c([nH]c4ccccc34)/C(=N/N)C[C@H]1[C@@H]2C(=O)OC" .
1.32

State the recorded Ratio for this entry: "CC[C@@H]1CN(C)[C@H]2Cc3c([nH]c4ccccc34)[C@@H](OC(=O)C34CC5CC(CC(C5)C3)C4)C[C@H]1[C@@H]2C(=O)OC"
1.08
